MEASUREMENT_NOTES: Cytotoxicity against human MG63 cells after 48 hrs by MTT assay
Format: functional, cell-based
MEASUREMENT_CONDITIONS: MG-63, 48 h, read-out: IC50
pIC50: −log10 of the molar value.

STRUCTURE_AS_SMILES: CCCCCCCC(=O)O[C@@H]1[C@@H](O)[C@@H](O)[C@H](O[C@@H]2[C@@H](O[C@@H]3O[C@@H](C)[C@H](O)[C@@H](O)[C@H]3O)[C@@H](OC(=O)CCCCC)[C@H](O[C@@H]3[C@H]4OC(=O)CCCCCCCCC[C@H](CCCCC)O[C@@H]5O[C@H](C)[C@H](O)[C@H](O)[C@H]5O[C@H](O[C@H]3C)[C@@H]4O)O[C@H]2C)O[C@H]1C
pIC50: 5.28
